Reference source: ChEMBL document CHEMBL1129388

test system: CEM-SS; test: Using the XTT assay for cell viability, inhibitory concentration to protect human lymphoblastoid CEM-SS cells from the cytopathic effects of HIV-1 (RF strain) was determined; assay type: functional, cell-based
Kindly supply the reported IC50 values for the records listed here.
Entry rule: numbers only, all in µM.

Query string: So what's the measured IC50 for this one? CCCc1cc(=O)oc2c3c(c4c(c12)OC(C)(C)CC4)O[C@@H](C)[C@H](C)[C@@H]3N
Result string: 5.8

Query string: Request the reported IC50 associated with CCCc1cc(=O)oc2c3c(c4c(c12)OC(C)(C)CC4)O[C@@H](C)[C@H](C)C3=O
Result string: 7.9

Query string: Given the entry CCCc1cc(=O)oc2c3c(c4c(c12)OC(C)(C)C=C4)O[C@@H](C)[C@H](C)[C@@H]3N=[N+]=[N-] , report its measured IC50.
Result string: 5.9

Query string: Any idea what IC50 was measured for CCCc1cc(=O)oc2c3c(c4c(c12)OC(C)(C)C=C4)O[C@@H](C)[C@H](C)C3=O ?
Result string: 8.5

Query string: If you can, please state the reported IC50 value of CCCc1cc(=O)oc2c3c(c4c(c12)OC(C)(C)CC4)O[C@@H](C)[C@H](C)[C@@H]3O [7,8-DIHYDROCALANOLIDE B] .
Result string: 8.2

Query string: What value of IC50 has been recorded for this entry: CCCc1cc(=O)oc2c3c(c4c(c12)OC(C)(C)CC4)O[C@H](C)[C@@H](C)[C@@H]3O
Result string: 5.2

Query string: Which IC50 value is on record for CCCc1cc(=O)oc2c3c(c4c(c12)OC(C)(C)C=C4)O[C@H](C)[C@@H](C)[C@@H]3O [CALANOLIDE A] ?
Result string: 7.3

Query string: Entry CCCc1cc(=O)oc2c3c(c4c(c12)OC(C)(C)C=C4)O[C@@H](C)[C@H](C)[C@@H]3O [COSTATOLIDE] : reported IC50 = ?
Result string: 5.9

Query string: Requested read-out: IC50. Entry: CCCc1cc(=O)oc2c3c(c4c(c12)OC(C)(C)C=C4)O[C@H](C)[C@@H](C)C3=O
Result string: 9.3
